assay-system: MMP-2 (Homo sapiens, UniProt P08253)
Construct: purchased Calbiochem-Novabiochem International, Inc
Sequence (P08253 110-660, species assumed): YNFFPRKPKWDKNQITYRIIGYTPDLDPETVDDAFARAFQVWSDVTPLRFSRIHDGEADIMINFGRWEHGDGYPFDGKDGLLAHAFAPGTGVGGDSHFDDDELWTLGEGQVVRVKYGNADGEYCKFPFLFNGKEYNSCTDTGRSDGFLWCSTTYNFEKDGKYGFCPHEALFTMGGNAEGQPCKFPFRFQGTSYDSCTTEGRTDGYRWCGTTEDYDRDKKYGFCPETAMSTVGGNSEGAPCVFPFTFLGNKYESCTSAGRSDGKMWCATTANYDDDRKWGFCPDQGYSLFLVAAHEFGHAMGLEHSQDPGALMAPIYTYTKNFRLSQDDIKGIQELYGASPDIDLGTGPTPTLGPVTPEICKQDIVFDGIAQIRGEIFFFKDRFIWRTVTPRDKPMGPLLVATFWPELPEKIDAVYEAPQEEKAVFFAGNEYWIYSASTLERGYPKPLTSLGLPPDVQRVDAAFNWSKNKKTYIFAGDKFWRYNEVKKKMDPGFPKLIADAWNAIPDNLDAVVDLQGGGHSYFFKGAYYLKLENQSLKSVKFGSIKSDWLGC
method-summary: Assay for inhibitory activities on MMPs (fluorogenic peptide substrate), MMP-2
Type: biochemical
measurement-context: purchased MMP-2; substrate MOCAc-Pro-Leu-Gly-Leu-A2Pr(DNP)-Ala-Arg-NH2
observed-property: IC50

molecule="CC(C)[C@@H](NS(=O)(=O)c1ccc(-c2ncc(-c3ccc4ccccc4c3)o2)cc1)C(=O)O [Compound A-50]" result="4.86 nM"
molecule="CC(C)[C@@H](NS(=O)(=O)c1ccc(-c2ncc(-c3ccccc3)s2)cc1)C(=O)O [Compound B-2]" result="1.83 nM"
molecule="COc1ccc(-c2cnc(-c3ccc(S(=O)(=O)N[C@H](C)C(=O)O)cc3)s2)cc1 [Compound B-23]" result="0.479 nM"
molecule="C[C@H](NS(=O)(=O)c1ccc(-c2ncc(-c3ccc(Cl)cc3)s2)cc1)C(=O)O [Compound B-26]" result="8.3 nM"
molecule="C[C@@H](NS(=O)(=O)c1ccc(-c2ncc(-c3ccc(Cl)cc3)s2)cc1)C(=O)O [Compound B-25]" result="0.484 nM"
molecule="COc1ccc(-c2cnc(-c3ccc(S(=O)(=O)N[C@@H](C(=O)O)C(C)C)cc3)s2)cc1 [Compound B-6]" result="0.347 nM"
